Taken from patent US20240417405A1.

- Test system: KO-52 cells
- test-summary: Proliferation assay, spheroid-like growth, KO-52 (MLL wildtype control cell line)
- Format: cell-based, human
- experimental-setup: Homo sapiens, 192 h, KO-52 control cells, 8 days, confluence as measure of spheroid size; read-out: spheroid assay_OneTime KO-52 IC50
Please assign not met whenever IC50 is at or above 7 µM, and met whenever it is below.

compound	label-value
CC(C)[C@H]([C@H]1C[C@@H](N2CCC3(CCCO3)C2)C1)N1CC2(CCN(c3ncnnc3Oc3ccc(F)cc3-c3nnccc3C3CC3)C2)C1 (single isomer, unassigned)	not met
CC(C)[C@H]([C@H]1C[C@H](N2CC3(CCO3)C2)C1)N1CC2(CCN(c3ncnnc3Oc3ccc(F)cc3-c3cnncc3C3CC3)C2)C1 (single isomer, unassigned) [Compound 84a]	not met
CC(C)C([C@H]1C[C@@H](N2CCC(C(=O)N(C)C)CC2)C1)N1CC2(CCN(c3ncnnc3Oc3ccc(F)cc3-c3cncnc3C3CC3)C2)C1 (stereo partly drawn)	met
CC(=O)N1CCN([C@H]2C[C@@H]([C@H](C(C)C)N3CC4(CCN(c5ncnnc5Oc5ccc(F)cc5-c5cnncc5C5CC5)C4)C3)C2)CC1 (single isomer, unassigned)	not met
CC(=O)N1CCCC12CN([C@H]1C[C@@H]([C@@H](C(C)C)N3CC4(CCN(c5ncnnc5Oc5ccc(F)cc5-c5cncnc5C5CC5)C4)C3)C1)C2 (single isomer, unassigned)	not met
CC(C)[C@H]([C@H]1C[C@@H](N2CCC3(CC2)COC3)C1)N1CC2(CCN(c3ncnnc3Oc3ccc(F)cc3-c3cncnc3C3CC3)C2)C1 (single isomer, unassigned)	met
CC(C)[C@@H]([C@H]1C[C@@H](N2CC(OC3CC3)C2)C1)N1CC2(CCN(c3ncnnc3Oc3ccc(F)cc3-c3nnccc3C3CC3)C2)C1 (single isomer, unassigned)	met
CC(C)[C@H]([C@H]1C[C@@H](N2CCC3(COC3)C2)C1)N1CC2(CCN(c3ncnnc3Oc3ccc(F)cc3-c3nnccc3C3CC3)C2)C1 (single isomer, unassigned)	not met
CC(C)[C@H]([C@H]1C[C@@H](NC(=O)CC#N)C1)N1CC2(CCN(c3ncnnc3Oc3ccc(F)cc3-c3cncnc3C3CC3)C2)C1 (single isomer, unassigned)	not met
